# System: 3E (embryonal-type hepatoblastoma organoid)
# assay_comment: area under the viability dose-response curve (AUC) (AUC (arbitrary units, max 500 = no viability loss)); higher = less sensitive (higher viability)
# stated_conditions: exposure time: 120 h; concentration range: 0.1 nM - 10 µM, 6 doses
Could you please report measured area under the viability dose-response curve for the items listed next?
Number only, no unit.

-- ask Kindly state the measured area under the viability dose-response curve obtained for COc1cc(CCc2cc(NC(=O)c3ccc(N4CC(C)NC(C)C4)cc3)n[nH]2)cc(OC)c1 (stereo not given) with 3E.
-- reply 308

-- ask Note, next up: `COc1cccc2c1C(=O)c1c(O)c3c(c(O)c1C2=O)C[C@@](O)(C(=O)CO)C[C@@H]3O[C@H]1C[C@H](N)[C@H](O)[C@H](C)O1`
-- reply 263

-- ask Note, next up: `O=C(CCCCCCC(=O)Nc1ccccc1)NO`
-- reply 379

-- ask Note, next up: `COc1cc2c(Oc3ccc4[nH]c(C)cc4c3F)ncnc2cc1OCCCN1CCCC1`
-- reply 390

-- ask Note, next up: `COc1cccc2c1C(=O)c1c(O)c3c(c(O)c1C2=O)C[C@@](O)(C(C)=O)C[C@@H]3O[C@H]1C[C@H](N)[C@H](O)[C@H](C)O1`
-- reply 273

-- ask Note, next up: `CC1(COc2ccc3c(c2)ncn3-c2ccc3cccc(N4CCC(N)CC4)c3n2)COC1`
-- reply 466

-- ask Note, next up: `CCc1cc2c(cc1N1CCC(N3CCOCC3)CC1)C(C)(C)c1[nH]c3cc(C#N)ccc3c1C2=O`
-- reply 452

-- ask Note, next up: `CS(=O)(=O)CCNCc1ccc(-c2ccc3ncnc(Nc4ccc(OCc5cccc(F)c5)c(Cl)c4)c3c2)o1`
-- reply 464

-- ask Note, next up: NC(=O)/C(=C/n1cnc(-c2cc(C(F)(F)F)cc(C(F)(F)F)c2)n1)c1cncnc1 [Eltanexor]
-- reply 345

-- ask Note, next up: `CC(=O)[C@]1(O)Cc2c(O)c3c(c(O)c2[C@@H](O[C@H]2C[C@H](N)[C@H](O)[C@H](C)O2)C1)C(=O)c1ccccc1C3=O`
-- reply 234

-- ask Note, next up: `Cc1ccc2c(Nc3cccc(Cl)c3F)nccc2c1NC(=O)c1csc2c(N)ncnc12`
-- reply 497

-- ask Note, next up: `N[C@@H]1CCCN(c2c(/C=C3\SC(=O)NC3=O)cccc2-c2ccccc2)C1`
-- reply 430

###

# System: 135F2 (fetal-II hepatoblastoma organoid with high liver markers)
# assay_comment: area under the viability dose-response curve (AUC) (AUC (arbitrary units, max 500 = no viability loss)); higher = less sensitive (higher viability)
# stated_conditions: exposure time: 120 h; concentration range: 0.1 nM - 10 µM, 6 doses
quantity_kind: area under the viability dose-response curve
Number only, no unit.

-- ask So what's the measured area under the viability dose-response curve for this one? `Cc1cccc(-c2[nH]c(CNc3ccccc3F)nc2-c2ccc3ncnn3c2)n1`
-- reply 481

-- ask Note, next up: `CNC(=O)c1ccccc1Sc1ccc2c(/C=C/c3ccccn3)n[nH]c2c1`
-- reply 463

-- ask Note, next up: `CC(C)C[C@H](NC(=O)[C@H](CCc1ccccc1)NC(=O)CN1CCOCC1)C(=O)N[C@@H](Cc1ccccc1)C(=O)N[C@@H](CC(C)C)C(=O)[C@@]1(C)CO1`
-- reply 194

-- ask Note, next up: `Cc1cc(Nc2ncc(Cl)c(Nc3ccccc3S(=O)(=O)C(C)C)n2)c(OC(C)C)cc1C1CCNCC1`
-- reply 373

-- ask Note, next up: `C[C@H]1Oc2cc(cnc2N)-c2c(nn(C)c2C#N)CN(C)C(=O)c2ccc(F)cc21`
-- reply 498

-- ask Note, next up: `C[C@@H](Oc1cc(-c2cnn(C3CCNCC3)c2)cnc1N)c1c(Cl)ccc(F)c1Cl`
-- reply 422

-- ask Note, next up: `CC(=O)c1c(C)c2cnc(Nc3ccc(N4CCNCC4)cn3)nc2n(C2CCCC2)c1=O`
-- reply 431

###

# Test system: 3E
# assay_comment: area under the viability dose-response curve (AUC) (AUC (arbitrary units, max 500 = no viability loss)); higher = less sensitive (higher viability)
# stated_conditions: exposure time: 120 h; concentration range: 0.1 nM - 10 µM, 6 doses
quantity_kind: area under the viability dose-response curve
Number only, no unit.

-- ask So what's the measured area under the viability dose-response curve for this one? C[C@H](NC(=O)CCC(F)(F)F)C(=O)N[C@@H]1C(=O)N(CCO)c2ncccc2-c2ccccc21 [Crenigacestat]
-- reply 458

-- ask Note, next up: C[C@]12CCCN1CC1=NNC(=O)c3cc(F)cc4[nH]c2c1c34 [Pamiparib]
-- reply 459

-- ask Note, next up: CN(C)C(=O)c1cc2cnc(Nc3ccc(N4CCNCC4)cn3)nc2n1C1CCCC1 [Ribociclib]
-- reply 404

-- ask Note, next up: CNC(=O)c1cccc(-c2ccc3c(N4CCOC[C@@H]4C)nc(N4CCOC[C@@H]4C)nc3n2)c1 [Vistusertib]
-- reply 376

-- ask Note, next up: `O=c1cc(-c2cccc3c2Sc2ccccc2S3)oc(N2CCOCC2)c1`
-- reply 490

###

Could you please report measured area under the viability dose-response curve for the items listed next?
# Tested on: 3E
# assay_comment: area under the viability dose-response curve (AUC) (AUC (arbitrary units, max 500 = no viability loss)); higher = less sensitive (higher viability)
# stated_conditions: exposure time: 120 h; concentration range: 0.1 nM - 10 µM, 6 doses
Number only, no unit.

-- ask Kindly state the measured area under the viability dose-response curve obtained for `C#Cc1cccc(Nc2ncnc3cc4c(cc23)OCCOCCOCCO4)c1` with 3E.
-- reply 474

-- ask Note, next up: `CNCc1ccccc1-c1csc([C@@H](C)Nc2nc(C)nc3cc(OC)c(OC)cc23)c1`
-- reply 458

-- ask Note, next up: O=C(/C=C\n1cnc(-c2cc(C(F)(F)F)cc(C(F)(F)F)c2)n1)NNc1cnccn1 [Selinexor]
-- reply 349

###

# Tested on: 3E
# assay_comment: area under the viability dose-response curve (AUC) (AUC (arbitrary units, max 500 = no viability loss)); higher = less sensitive (higher viability)
# stated_conditions: exposure time: 120 h; concentration range: 0.1 nM - 10 µM, 6 doses
Could you please report measured area under the viability dose-response curve for the items listed next?

-- ask So what's the measured area under the viability dose-response curve for this one? CNC(=O)c1ccccc1Sc1ccc2c(/C=C/c3ccccn3)n[nH]c2c1 [Axitinib]
-- reply 421

-- ask Note, next up: COc1cc(OC)cc(N(CCNC(C)C)c2ccc3ncc(-c4cnn(C)c4)nc3c2)c1 [Erdafitinib]
-- reply 227

-- ask Note, next up: `COc1ccc(Cn2ccc3ccc(C(=O)NO)cc32)cc1`
-- reply 452

-- ask Note, next up: CC[C@H](C)n1cc(C)c2c(C(=O)NCc3c(C)cc(C)[nH]c3=O)cc(-c3ccc(N4CCNCC4)nc3)cc21 [GSK-126]
-- reply 458

-- ask Note, next up: CC(C)(C)c1cc(NC(=O)Nc2ccc(-c3cn4c(n3)sc3cc(OCCN5CCOCC5)ccc34)cc2)no1 [Quizartinib]
-- reply > 500

-- ask Note, next up: CN(C)C/C=C/C(=O)Nc1ccc(C(=O)Nc2cccc(Nc3ncc(Cl)c(-c4c[nH]c5ccccc45)n3)c2)cc1 [THZ1]
-- reply 223

-- ask Note, next up: O=c1[nH]c(=O)n([C@@H]2O[C@H](CO)[C@@H](O)[C@H]2O)cc1F [5-Fluorouridine]
-- reply 319

-- ask Note, next up: CNCc1ccc(-c2[nH]c3cc(F)cc4c3c2CCNC4=O)cc1 [Rucaparib]
-- reply 490

###

Could you please report measured area under the viability dose-response curve for the items listed next?
# System: 135F2
# assay_comment: area under the viability dose-response curve (AUC) (AUC (arbitrary units, max 500 = no viability loss)); higher = less sensitive (higher viability)
# stated_conditions: exposure time: 120 h; concentration range: 0.1 nM - 10 µM, 6 doses
Number only, no unit.

-- ask So what's the measured area under the viability dose-response curve for this one? C=CC(=O)Nc1cc(Nc2nccc(-c3cn(C)c4ccccc34)n2)c(OC)cc1N(C)CCN(C)C [Osimertinib]
-- reply 442

-- ask Note, next up: O=C(Nc1ccc(Cl)c(C(F)(F)F)c1)NC1CCC(Oc2ccc(C(F)(F)F)cn2)CC1 (centres undefined) [UC2288]
-- reply 468

-- ask Note, next up: CN(C)C/C=C/C(=O)Nc1ccc(C(=O)N2CCC[C@@H](Nc3ncc(Cl)c(-c4c[nH]c5ccccc45)n3)C2)cc1 [THZ531]
-- reply 367

-- ask Note, next up: CO[C@@H]1[C@H](N(C)C(=O)c2ccccc2)C[C@H]2O[C@]1(C)n1c3ccccc3c3c4c(c5c6ccccc6n2c5c31)C(=O)NC4 [Midostaurin]
-- reply 365

###

Could you please report measured area under the viability dose-response curve for the items listed next?
# Test system: 3E
# assay_comment: area under the viability dose-response curve (AUC) (AUC (arbitrary units, max 500 = no viability loss)); higher = less sensitive (higher viability)
# stated_conditions: exposure time: 120 h; concentration range: 0.1 nM - 10 µM, 6 doses
Number only, no unit.

-- ask So what's the measured area under the viability dose-response curve for this one? `C[C@H]1Oc2cc(cnc2N)-c2c(nn(C)c2C#N)CN(C)C(=O)c2ccc(F)cc21`
-- reply 459

-- ask Note, next up: `CCn1c(-c2nonc2N)nc2cnc(Oc3cccc(NC(=O)c4ccc(OCCN5CCOCC5)cc4)c3)cc21`
-- reply 493

-- ask Note, next up: Nc1cc(F)ccc1NC(=O)c1ccc(CNC(=O)/C=C/c2cccnc2)cc1 [Tucidinostat]
-- reply 432

-- ask Note, next up: `C/C=C1\NC(=O)[C@H]2CSSCC/C=C/[C@H](CC(=O)N[C@H](C(C)C)C(=O)N2)OC(=O)[C@H](C(C)C)NC1=O`
-- reply 87.9

-- ask Note, next up: `COc1cc(C(=O)O)ccc1NC(=O)[C@@H]1N[C@@H](CC(C)(C)C)[C@](C#N)(c2ccc(Cl)cc2F)[C@H]1c1cccc(Cl)c1F`
-- reply 349

-- ask Note, next up: `CC1(N)CCN(c2cnc(-c3cccc(Cl)c3Cl)c(N)n2)CC1`
-- reply 473

-- ask Note, next up: `C[C@@H]1C[C@H](C)CN(S(=O)(=O)c2ccc3c(c2)C(=NO)c2cc(S(=O)(=O)N4C[C@H](C)C[C@H](C)C4)ccc2C3=NO)C1`
-- reply 236

-- ask Note, next up: `O=C1c2c(O)ccc(O)c2C(=O)c2c(NCCNCCO)ccc(NCCNCCO)c21`
-- reply 208

-- ask Note, next up: `C=CCn1c(=O)c2cnc(Nc3ccc(N4CCN(C)CC4)cc3)nc2n1-c1cccc(C(C)(C)O)n1`
-- reply 335

-- ask Note, next up: `CCN(CC)CCNC(=O)c1c(C)[nH]c(/C=C2\C(=O)Nc3ccc(F)cc32)c1C`
-- reply 471

-- ask Note, next up: `Nc1nc(=S)c2[nH]cnc2[nH]1`
-- reply 484

-- ask Note, next up: Nc1cc(F)ccc1NC(=O)c1ccc(CNC(=O)/C=C/c2cccnc2)cc1 [Epidaza]
-- reply 466

-- ask Note, next up: `C[C@H](NC(=O)Cc1cc(F)cc(F)c1)C(=O)N[C@@H]1C(=O)N(C)c2ccccc2-c2ccccc21`
-- reply 406
